Read-out: glucuronosyltransferase (UGT1A1), UGT1A1 (gene 54658)
Test: CLD_UGT1A1_24hr: CellzDirect (CLD) Gene Expression Assay for glucuronosyltransferase (UGT1A1) at 24 hours (AID 2283696)
Inconclusive results are not listed. Active and inactive are the calls of the source. Rule for the calls: active = hit-call score of the fitted dose curve at least 0.9, where 1 is the maximum; inconclusive = response in the unintended direction; inactive = score below 0.9.
Permitted responses: active, inactive

Lookup: Any idea what this test logged for CCC(O)=C1C(=O)CC(C(=O)O)CC1=O (stereo unspecified) ?
Found: inactive

Lookup: Any idea what this test logged for CSC(=O)c1cccc2nnsc12 ?
Found: inactive

Lookup: Any idea what this test logged for OB(O)O ?
Found: inactive

Lookup: Any idea what this test logged for CCC(C)OC(=O)N1CCCCC1CCO (stereo unspecified) ?
Found: inactive

Lookup: Any idea what this test logged for CCCCOC(=O)C(C)Oc1ccc(Oc2ccc(C(F)(F)F)cn2)cc1 (stereo unspecified) ?
Found: active

Lookup: Any idea what this test logged for CC1(C)C(C=C(Cl)Cl)C1C(=O)OCc1cccc(Oc2ccccc2)c1 (stereo unspecified) ?
Found: inactive

Lookup: Any idea what this test logged for CC(C)(c1ccc(O)cc1)c1ccc(O)cc1 ?
Found: inactive

Lookup: Any idea what this test logged for Oc1ccc(C(c2ccc(O)cc2)C(Cl)(Cl)Cl)cc1 ?
Found: inactive

Lookup: Any idea what this test logged for COC(=O)c1ccccc1S(=O)(=O)NC(=O)Nc1nc(OC(F)F)cc(OC(F)F)n1 ?
Found: inactive

---

Read-out: Cyclin D1 (CCND1), CCND1 (gene 595)
Assay: LTEA_HepaRG_CCND1: Life Technologies and Expression Analysis (LTEA) Assay for Cyclin D1 (CCND1) using HepaRG (AID 2283451)
Conditions: mRNA level, 48 h; actives raise or lower the signal
Calls of active or inactive are those of the source. Rule for the calls: active = hit-call score of the fitted dose curve at least 0.9, where 1 is the maximum; inactive = score below 0.9.
Permitted responses: active, inactive

Lookup: Any idea what this test logged for N#CSCSc1nc2ccccc2s1 ?
Found: inactive

Lookup: Any idea what this test logged for CCCN(CCC)c1c([N+](=O)[O-])cc(C(F)(F)F)c(N)c1[N+](=O)[O-] ?
Found: inactive

Lookup: Any idea what this test logged for CC(=O)[C@H]1CC[C@H]2[C@@H]3CCC4=CC(=O)CC[C@]4(C)[C@H]3CC[C@]12C ?
Found: inactive

Lookup: Any idea what this test logged for N[C@@H](Cc1cc(I)c(Oc2ccc(O)c(I)c2)c(I)c1)C(=O)O ?
Found: inactive

Lookup: Any idea what this test logged for CCCCOCCOCCOCc1cc2c(cc1CCC)OCO2 ?
Found: inactive

Lookup: Any idea what this test logged for CCNc1nc(N)nc(Cl)n1 ?
Found: inactive

Lookup: Any idea what this test logged for c1ccc2[nH]c(-c3cscn3)nc2c1 ?
Found: inactive

Lookup: Any idea what this test logged for CCOC(=O)C(C)Oc1ccc(Oc2cnc3cc(Cl)ccc3n2)cc1 (stereo not given) ?
Found: inactive

Lookup: Any idea what this test logged for CCCN(CCC)C(=O)SCC ?
Found: inactive

---

Read-out: Hypoxia-inducible factor 1-alpha (Homo sapiens)
Test: LTEA_HepaRG_HIF1A: Life Technologies and Expression Analysis (LTEA) Assay for Hypoxia-inducible factor 1 (HIF1A) Trancription factor using HepaRG (AID 2283503);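 note: HIF1A transcript by TaqMan qRT-PCR normalized to ACTB GAPDH and POLR2A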
Details: mRNA level, 48 h; actives raise or lower the signal
Active and inactive are the calls of the source. Rule for the calls: active = hit-call score of the fitted dose curve at least 0.9, where 1 is the maximum; inactive = score below 0.9.
Permitted responses: active, inactive

A selection of reference data follows.
COMPOUND	LABEL CLASS
CCCCOC(=O)C(C)Oc1ccc(Oc2ccc(C(F)(F)F)cn2)cc1 (stereo not given)	inactive
C#C[C@]1(O)CC[C@H]2[C@@H]3CCC4=CC(=O)CC[C@@H]4[C@H]3CC[C@@]21CC	inactive
CCOC(=O)c1ccc(O)cc1	inactive
S=C([S-])NCCNC(=S)[S-].[Mn+2]	active

Lookup: Any idea what this test logged for c1ccc2[nH]c(-c3cscn3)nc2c1 ?
Found: inactive

Lookup: Any idea what this test logged for O=C(O)C1(C(=O)Nc2ccc(Cl)cc2Cl)CC1 ?
Found: active

Lookup: Any idea what this test logged for COc1c(Cl)ccc(Cl)c1C(=O)O ?
Found: inactive

Lookup: Any idea what this test logged for N#CSCSc1nc2ccccc2s1 ?
Found: inactive

Lookup: Any idea what this test logged for CCC(C)OC(=O)N1CCCCC1CCO (stereo not given) ?
Found: inactive

Lookup: Any idea what this test logged for CCCCOC(=O)[C@@H](C)Oc1ccc(Oc2ccc(C(F)(F)F)cn2)cc1 ?
Found: inactive

Lookup: Any idea what this test logged for CCCN(CCC)C(=O)SCC ?
Found: inactive

Lookup: Any idea what this test logged for CCCOC(=O)c1ccc(C(=O)OCCC)nc1 ?
Found: inactive

Lookup: Any idea what this test logged for CCOC(=O)NCCOc1ccc(Oc2ccccc2)cc1 ?
Found: inactive

Lookup: Any idea what this test logged for O=C(c1ccc(O)cc1O)c1ccc(O)cc1O ?
Found: inactive

Lookup: Any idea what this test logged for CCN(Cc1c(F)cccc1Cl)c1c([N+](=O)[O-])cc(C(F)(F)F)cc1[N+](=O)[O-] ?
Found: inactive

Lookup: Any idea what this test logged for CCCN(CCC)c1c([N+](=O)[O-])cc(C(F)(F)F)c(N)c1[N+](=O)[O-] ?
Found: inactive

Lookup: Any idea what this test logged for c1ccc(Nc2ccccc2)cc1 ?
Found: inactive

Lookup: Any idea what this test logged for C[C@]12C[C@H](O)[C@H]3[C@@H](CCC4=CC(=O)CC[C@@]43C)[C@@H]1CC[C@@H]2C(=O)CO ?
Found: inactive

Lookup: Any idea what this test logged for Cc1nn(C)c(Oc2ccccc2)c1C=NOCc1ccc(C(=O)OC(C)(C)C)cc1 ?
Found: inactive

Lookup: Any idea what this test logged for O=C(O)c1ccccc1 ?
Found: inactive

---

Read-out: Forkhead box O3 (FOXO3), FOXO3 (gene 2309)
Experiment: LTEA_HepaRG_FOXO3: Life Technologies and Expression Analysis (LTEA) Assay for Forkhead box O3 (FOXO3) using HepaRG (AID 2283459)
Details: mRNA level, 48 h; actives raise or lower the signal
The source made the active and inactive calls. The calls were made as follows: active = hit-call score of the fitted dose curve at least 0.9, where 1 is the maximum; inactive = score below 0.9.
QUANTITY KIND: AC50

Solved entries:
COMPOUND	AC50
COc1c(Cl)ccc(Cl)c1C(=O)O	inactive
C#C[C@]1(O)CC[C@H]2[C@@H]3CCC4=CC(=O)CC[C@@H]4[C@H]3CC[C@@]21CC	inactive
COC(=O)CSc1cc(N=c2sc(=O)n3n2CCCC3)c(F)cc1Cl	inactive
CCOC(=O)NCCOc1ccc(Oc2ccccc2)cc1	inactive

Lookup: # input compound: CC(C)(c1ccc(O)cc1)c1ccc(O)cc1 ; wanted: its AC50
Found: inactive

Lookup: # input compound: C[C@]12C[C@H](O)[C@H]3[C@@H](CCC4=CC(=O)CC[C@@]43C)[C@@H]1CC[C@@H]2C(=O)CO ; wanted: its AC50
Found: inactive

---

Read-out: Vascular cell adhesion molecule 1 (VCAM1), VCAM1 (gene 7412)
Assay: BSK_CASM3C_VCAM1: BioMAP Diversity Plus: CASM3C Assay for Vascular cell adhesion molecule 1 (VCAM1) Biomarker Activity (AID 2283055);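 note: VCAM-1 protein level quantified by ELISA on the cells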
Details: primary human coronary artery smooth muscle cells; actives raise or lower the signal
The source made the active and inactive calls. The calls were made as follows: active = hit-call score of the fitted dose curve at least 0.9, where 1 is the maximum; inactive = score below 0.9.
Permitted responses: YES (active), NO (inactive)

COMPOUND	LABEL CLASS
CCCCOC(=O)[C@@H](C)Oc1ccc(Oc2ccc(C(F)(F)F)cn2)cc1	NO
C#CCOC(=O)[C@@H](C)Oc1ccc(Oc2ncc(Cl)cc2F)cc1	NO
COC(=O)c1ccc(CNS(C)(=O)=O)cc1S(=O)(=O)NC(=O)Nc1nc(OC)cc(OC)n1	NO
CN(C)C(=O)Nc1ccc(Cl)c(Cl)c1	NO
CCCCCCC(C)OC(=O)COc1nc(F)c(Cl)c(N)c1Cl (stereo unspecified)	YES

Next compound, please.
Lookup: Any idea what this test logged for CCCOC(=O)NCCCN(C)C ?
Found: NO

---

Read-out: Cyclin D1 (CCND1), CCND1 (gene 595)
Experiment: LTEA_HepaRG_CCND1: Life Technologies and Expression Analysis (LTEA) Assay for Cyclin D1 (CCND1) using HepaRG (AID 2283451)
Details: mRNA level, 48 h; actives raise or lower the signal
The source made the active and inactive calls. The calls were made as follows: active = hit-call score of the fitted dose curve at least 0.9, where 1 is the maximum; inactive = score below 0.9.

SMILES STR	outcome
CCOC(=O)NCCOc1ccc(Oc2ccccc2)cc1	inactive
COC(=O)CSc1cc(N=c2sc(=O)n3n2CCCC3)c(F)cc1Cl	inactive
CC(C)(C)[C@@H](O)[C@@H](Cc1ccc(Cl)cc1)n1cncn1	inactive

---

Test: BSK_LPS_PGE2: BioMAP Diversity Plus: LPS Assay for Prostaglandin E2 (PGE2) Biomarker Activity (AID 2283082)
Conditions: primary human HUVEC with PBMC; actives raise or lower the signal
Calls of active or inactive are those of the source. The calls were made as follows: active = hit-call score of the fitted dose curve at least 0.9, where 1 is the maximum; inactive = score below 0.9.
Permitted responses: t for active, f for inactive

MOLECULE	LABEL CLASS
CCCCCOC(=O)COc1cc(N2C(=O)C3=C(CCCC3)C2=O)c(F)cc1Cl	f
CCOC(=O)[C@H](C)Oc1ccc(Oc2nc3ccc(Cl)cc3o2)cc1	t
CSC(=O)c1cccc2nnsc12	f
CCCN(CCC)C(=O)SCC	f
COC(=O)c1ccccc1C(=O)O	f

Lookup: Any idea what this test logged for CCOC(=O)C(C)Oc1ccc(Oc2nc3ccc(Cl)cc3o2)cc1 (configuration not stated) ?
Found: t

Lookup: Any idea what this test logged for CCCOC(=O)NCCCN(C)C ?
Found: f
